Biological target: BACE1 (Homo sapiens)
Sequence (P56817 46-501, species assumed): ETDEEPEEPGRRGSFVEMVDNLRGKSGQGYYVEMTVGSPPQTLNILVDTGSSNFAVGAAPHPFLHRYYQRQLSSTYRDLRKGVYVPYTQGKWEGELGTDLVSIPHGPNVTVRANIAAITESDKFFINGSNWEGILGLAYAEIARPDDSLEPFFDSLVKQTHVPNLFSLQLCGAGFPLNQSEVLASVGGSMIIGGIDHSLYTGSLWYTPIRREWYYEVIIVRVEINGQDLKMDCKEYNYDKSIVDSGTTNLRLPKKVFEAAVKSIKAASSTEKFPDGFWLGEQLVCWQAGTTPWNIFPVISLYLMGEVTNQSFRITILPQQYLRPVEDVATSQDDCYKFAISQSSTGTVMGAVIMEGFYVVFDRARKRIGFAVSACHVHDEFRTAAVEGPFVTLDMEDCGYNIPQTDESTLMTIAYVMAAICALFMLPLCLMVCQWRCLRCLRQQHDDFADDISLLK
Experiment: In vitro enzymatic BACE FRET assay
Assay type: biochemical
Conditions: beta secretase enzyme 0.2 nM, FRET substrate 50 nM, pH 4.2; read-out: BACE1 FRET assay (IC50 class)
readout.type: IC50

smiles.str	readout.type	reading
Cc1cccc(C(=O)c2ccccn2)c1-c1ccc2nc(N)c(N3CCOCC3)cc2c1	IC50	< 100 nM
Cc1cccc(C(=O)C2CC2)c1-c1ccc2nc(N)c(N3CCOCC3)cc2c1	IC50	100 to 500 nM
Cc1cccc(C(=O)C2CCCCC2)c1-c1ccc2nc(N)c(N3CCOCC3)cc2c1	IC50	< 100 nM
Nc1nc2ccc(-c3ccccc3C(=O)C3CCCC3)cc2cc1N1CCOCC1	IC50	100 to 500 nM
Nc1nc2ccc(-c3c(Cl)cccc3C(=O)N3CCCCC3)cc2cc1N1CCOCC1	IC50	< 100 nM

We next turn to a different compound, shown below.
Inquiry: Indicate its recorded IC50; the compound in question is `COCCN(C)C(=O)c1cccc(C)c1-c1ccc2nc(N)c(N3CCOCC3)cc2c1`
Reply text: 100 to 500 nM
